Target: UniProtKB O15245
Sequence (O15245 1-554): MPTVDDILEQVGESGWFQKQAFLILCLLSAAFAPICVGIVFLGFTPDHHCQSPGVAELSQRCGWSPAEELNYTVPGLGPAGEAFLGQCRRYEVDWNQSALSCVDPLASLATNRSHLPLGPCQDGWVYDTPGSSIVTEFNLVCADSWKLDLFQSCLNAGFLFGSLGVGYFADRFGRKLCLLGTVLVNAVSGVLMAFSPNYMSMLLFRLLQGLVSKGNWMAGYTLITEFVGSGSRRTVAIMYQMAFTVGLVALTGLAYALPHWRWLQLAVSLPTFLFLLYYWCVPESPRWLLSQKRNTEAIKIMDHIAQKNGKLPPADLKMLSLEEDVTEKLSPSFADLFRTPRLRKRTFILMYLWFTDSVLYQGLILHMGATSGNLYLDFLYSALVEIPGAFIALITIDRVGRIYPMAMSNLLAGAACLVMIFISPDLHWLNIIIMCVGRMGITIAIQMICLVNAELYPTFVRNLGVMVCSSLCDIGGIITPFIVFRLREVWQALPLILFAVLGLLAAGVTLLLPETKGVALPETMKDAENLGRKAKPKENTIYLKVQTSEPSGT
Assay: Uptake screening (transport ratio over empty vector), HEK293 cells overexpressing OCT1 WT;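 note: intracellular substrate levels quantified by HPLC–tandem mass spectrometry after uptake in HBSS+ buffer at 37 °C, stable Flp-In HEK293 lines, fold change versus empty vector–transfected cells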
Type: cell-based
Design: expressed in transfected cells
Settings: uptake ratio of OCT1 WT-overexpressing HEK293 cells over empty vector
MEASUREMENT TYPE: Mean_transport_ratio_WT
The response must contain the number and no unit.

## Task Supply Mean_transport_ratio_WT value. Item: CN(C)C(=N)N=C(N)N
## Result 6.891

## Task Supply Mean_transport_ratio_WT value. Item: O=S(=O)(c1cccc2cnccc12)N1CCCNCC1
## Result 1

## Task Supply Mean_transport_ratio_WT value. Item: CC(C)(C)NCC(O)COc1cccc2c1CC(O)C(O)C2 (centres unmarked)
## Result 9.921

## Task Supply Mean_transport_ratio_WT value. Item: C[N@+]1(CC2CC2)CC[C@]23c4c5ccc(O)c4O[C@H]2C(=O)CC[C@@]3(O)[C@H]1C5 [Methylnaltrexone]
## Result 47.714

## Task Supply Mean_transport_ratio_WT value. Item: C[C@H]1N=C(N(C)C)N=C(N)N1
## Result 32.655
